# tested system: Adrenergic receptor alpha-1 (Rattus norvegicus, UniProt P15823+P23944+P43140)
# test method notes: In vitro binding affinity at Alpha-1 adrenergic receptor in rat cortical tissues
value kind: Ki (nM)

[[record]]
given_smiles = "Clc1ccc2c(c1)C(N1CCN(CCc3ccccc3)CC1)=Nc1cccnc1N2"
unit_abbreviation = "nM"
readout_qualifier = "="
endpoint_result = 367

[[record]]
given_smiles = "Clc1ccc2c(c1)C(NCCc1ccccn1)=Nc1cccnc1N2"
unit_abbreviation = "nM"
readout_qualifier = ">"
endpoint_result = 1000

[[record]]
given_smiles = "Clc1ccc2c(c1)C(N1CCN(Cc3ccccc3)CC1)=Nc1cccnc1N2"
unit_abbreviation = "nM"
readout_qualifier = ">"
endpoint_result = 1000

[[record]]
given_smiles = "CN1CCCN(C2=Nc3cccnc3Nc3ccc(Cl)cc32)CC1"
unit_abbreviation = "nM"
readout_qualifier = ">"
endpoint_result = 1000

[[record]]
given_smiles = "Clc1ccc2c(c1)C(NCCN1CCCCC1)=Nc1cccnc1N2"
unit_abbreviation = "nM"
readout_qualifier = "="
endpoint_result = 63

[[record]]
given_smiles = "Cc1ccc2c(c1)C(NC1CCN(Cc3ccccc3)CC1)=Nc1cccnc1N2"
unit_abbreviation = "nM"
readout_qualifier = "="
endpoint_result = 100

[[record]]
given_smiles = "Cc1ccc2c(c1)C(NCCN(C)C)=Nc1cccnc1N2"
unit_abbreviation = "nM"
readout_qualifier = ">"
endpoint_result = 1000

[[record]]
given_smiles = "Cc1ccc2c(c1)C(N1CCN(Cc3ccccc3)CC1)=Nc1cccnc1N2"
unit_abbreviation = "nM"
readout_qualifier = ">"
endpoint_result = 1000

[[record]]
given_smiles = "Cc1ccc2c(c1)C(N1CCN(c3ccccc3)CC1)=Nc1cccnc1N2"
unit_abbreviation = "nM"
readout_qualifier = ">"
endpoint_result = 1000

[[record]]
given_smiles = "Clc1ccc2c(c1)C(NC1CCN(Cc3ccccc3)CC1)=Nc1cccnc1N2"
unit_abbreviation = "nM"
readout_qualifier = "="
endpoint_result = 163

